Assay Target: T1, hPRLR.mFc (soluble dimeric human PRLR) (human)
T1 construct: dimeric PRLR construct
T1 chain: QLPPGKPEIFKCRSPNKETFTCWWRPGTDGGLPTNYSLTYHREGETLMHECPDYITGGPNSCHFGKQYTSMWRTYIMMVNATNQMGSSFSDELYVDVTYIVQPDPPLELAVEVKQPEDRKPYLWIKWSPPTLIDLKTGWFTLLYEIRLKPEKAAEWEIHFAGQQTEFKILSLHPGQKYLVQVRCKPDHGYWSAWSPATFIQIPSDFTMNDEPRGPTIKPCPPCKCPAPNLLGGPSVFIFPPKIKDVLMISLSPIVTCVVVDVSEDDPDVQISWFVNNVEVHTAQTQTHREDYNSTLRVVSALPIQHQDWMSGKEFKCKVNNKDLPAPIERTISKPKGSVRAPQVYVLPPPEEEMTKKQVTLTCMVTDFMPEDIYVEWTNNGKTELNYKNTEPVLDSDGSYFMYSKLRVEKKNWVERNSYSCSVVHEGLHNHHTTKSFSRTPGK
Experiment Notes: SPR (Biacore), antibody capture, 37 C
Each entry gets No if its T 1/2 stays under 1 h, and Yes if its T 1/2 is 1 h or above.

Use these answered entries as a reference point.
In: Answer whether T 1/2 of H1H6959N2 (antibody, human IgG1, V domains shown, also called H2M6959N2) VH: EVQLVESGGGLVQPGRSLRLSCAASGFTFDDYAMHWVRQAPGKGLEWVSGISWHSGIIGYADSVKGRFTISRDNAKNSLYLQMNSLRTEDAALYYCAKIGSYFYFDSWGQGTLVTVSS VL: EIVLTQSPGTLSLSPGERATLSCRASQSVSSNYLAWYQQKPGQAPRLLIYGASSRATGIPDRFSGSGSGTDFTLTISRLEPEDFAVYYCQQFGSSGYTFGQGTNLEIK is greater than or equal to 1 h.
Out: No

In: In plain terms: is recorded T 1/2 at least 1 h for H1H6782P (antibody, human IgG1, V domains shown, human IgG1 Fc (H1H)) VH: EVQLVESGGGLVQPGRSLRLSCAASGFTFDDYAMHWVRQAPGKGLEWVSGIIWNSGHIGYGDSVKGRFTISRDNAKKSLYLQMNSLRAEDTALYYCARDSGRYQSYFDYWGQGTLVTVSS VL: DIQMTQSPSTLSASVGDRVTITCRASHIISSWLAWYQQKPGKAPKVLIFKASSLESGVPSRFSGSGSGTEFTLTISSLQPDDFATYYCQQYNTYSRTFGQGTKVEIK ?
Out: Yes

In: Decide: is the reported value of T 1/2 for H1H6792P (antibody, human IgG1, V domains shown, human IgG1 Fc (H1H)) VH: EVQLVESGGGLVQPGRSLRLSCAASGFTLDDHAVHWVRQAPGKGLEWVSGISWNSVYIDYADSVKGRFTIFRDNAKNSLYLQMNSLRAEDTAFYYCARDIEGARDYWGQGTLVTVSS VL: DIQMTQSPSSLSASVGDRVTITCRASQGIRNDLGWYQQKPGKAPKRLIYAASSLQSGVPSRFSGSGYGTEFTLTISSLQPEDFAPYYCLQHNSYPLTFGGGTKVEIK equal to or greater than 1 h?
Out: Yes

Others:
In: API: above_or_equal(metric=T 1/2, cutoff=1 h) for item H1H6797P (antibody, human IgG1, V domains shown, human IgG1 Fc (H1H)) VH: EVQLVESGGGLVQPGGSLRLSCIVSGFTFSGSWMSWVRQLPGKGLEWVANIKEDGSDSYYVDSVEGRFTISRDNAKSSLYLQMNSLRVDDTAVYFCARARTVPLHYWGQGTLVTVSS VL: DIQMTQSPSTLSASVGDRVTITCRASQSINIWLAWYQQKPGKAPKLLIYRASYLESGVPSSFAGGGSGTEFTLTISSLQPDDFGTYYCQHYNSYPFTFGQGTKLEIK
Out: Yes
